Parameter: cytotoxicity at 70.5 h. Scope: all listed entries.
# Protocol notes: Human HepG2 cell viability assay in 384 well format
# Format: toxicity, cell-based
# Parameters: dose 125 nL, time 70.5 hour; concentration not given beside the values
# Measurement setup: HepG2 cells, read-out: Inhibition
Please give a number only; it is taken to be in %.

For orientation, consider the following solved cases.
{"Compound": "CN(C)C(=O)N1CCC(C2C(=O)Nc3ccccc32)CC1 (centres undefined)", "cytotoxicity at 70.5 h, %": -10.4}
{"Compound": "c1ccc(CN2CCCC(CNc3ncnc4c3CCNCC4)C2)cc1 (centres undefined)", "cytotoxicity at 70.5 h, %": -6.09}
{"Compound": "O=C(N1CCCCC1)N1CCCC(c2ncncc2-c2ccncc2)C1 (centres undefined)", "cytotoxicity at 70.5 h, %": -8.3}
{"Compound": "COCCN1CCC(CNC(=O)Nc2ccc(-c3ccccc3)cc2)C1 (centres undefined)", "cytotoxicity at 70.5 h, %": 1.85}
{"Compound": "CC(C)c1noc(CN(Cc2ccc(F)cc2)C2CC2)n1", "cytotoxicity at 70.5 h, %": -8.41}

Field: next compound
Task: Which measured cytotoxicity at 70.5 h value corresponds to Cc1ccc(CNC(C)c2ccc3[nH]c(=O)[nH]c3c2)s1 (centres undefined) ?
Output: -1.82

###

# Protocol notes: Human HepG2 cell viability assay in 384 well format
# Assay type: toxicity, cell-based
# Design: dose 125 nL, time 70.5 hour; concentration not given beside the values
# Measurement setup: HepG2 cells, read-out: Inhibition
Parameter: cytotoxicity at 70.5 h. Scope: all listed entries.
Please give a number only; it is taken to be in %.

{"Molecule": "Cc1cccc(N2CC3(CCN(S(=O)(=O)c4ccccc4)C3)CC2=O)c1 (stereo unspecified)", "cytotoxicity at 70.5 h / %": -6.5}

Task: Which measured cytotoxicity at 70.5 h value corresponds to CC(C)n1nc(O)c2c1NC(=O)CSC2c1cnn(C)c1 (stereo unspecified) ?
Output: -19.6

Task: Which measured cytotoxicity at 70.5 h value corresponds to Cc1nc(CNC(=O)NC2CCN(c3ncccc3Cl)C2)no1 (stereo unspecified) ?
Output: -3.51

Task: Which measured cytotoxicity at 70.5 h value corresponds to Cc1noc([C@]23COC[C@H]2CN(S(C)(=O)=O)C3)n1 ?
Output: -1.56

Task: Which measured cytotoxicity at 70.5 h value corresponds to O=C(NC1CC1)[C@H]1C[C@H]2OCC[C@H]2N(Cc2ccc(F)cc2)C1 ?
Output: -6.46

Task: Which measured cytotoxicity at 70.5 h value corresponds to Cc1cccc(C(C(=O)N2CCN(C(=O)c3ccc[nH]3)CC2)N(C)C)c1 (stereo unspecified) ?
Output: -8.99

Task: Which measured cytotoxicity at 70.5 h value corresponds to Cc1cccc(CN2CC[C@@H]3[C@@H]2CCN3C(=O)c2cc(C)on2)n1 ?
Output: -12.4

Task: Which measured cytotoxicity at 70.5 h value corresponds to CC(C)C(=O)NCC(=O)N(C)C1CCCN(C2Cc3ccccc3C2)C1 (stereo unspecified) ?
Output: -10.4

Task: Which measured cytotoxicity at 70.5 h value corresponds to CCCc1nnsc1C(=O)NCC1CCN(C(=O)c2ccncc2)CC1 ?
Output: 25.7

###

Parameter: cytotoxicity at 70.5 h. Scope: all listed entries.
# Protocol notes: Human HepG2 cell viability assay in 384 well format
# Type: toxicity, cell-based
# Set-up: dose 125 nL, time 70.5 hour; concentration not given beside the values
# Measurement setup: HepG2 cells, read-out: Inhibition
Please give a number only; it is taken to be in %.

For orientation, consider the following solved cases.
{"Compound": "COc1cccc(CC2CCCN2CC(N)=O)c1 (stereo not drawn)", "cytotoxicity at 70.5 h / %": -8.71}
{"Compound": "Cn1ccnc1CN1CCCN(C(=O)c2ccc3ccccc3c2)CC1", "cytotoxicity at 70.5 h / %": 1.95}

Field: next compound
Task: Which measured cytotoxicity at 70.5 h value corresponds to O=C(CN1CCCCC1=O)N1CCC2(CC1)[C@H](O)C[C@@H]2O ?
Output: -3.31

###

Parameter: cytotoxicity at 70.5 h. Scope: all listed entries.
# Protocol notes: Human HepG2 cell viability assay in 384 well format
# Format: toxicity, cell-based
# Set-up: dose 125 nL, time 70.5 hour; concentration not given beside the values
# Measurement setup: HepG2 cells, read-out: Inhibition
Please give a number only; it is taken to be in %.

{"Compound": "CC1(CO)COC(Cc2ccc(Cl)cc2)=N1 (centres undefined)", "cytotoxicity at 70.5 h (%)": 21}
{"Compound": "CCc1ccc(CN2CCN(c3cccc(OC)c3)C(=O)C2)nc1", "cytotoxicity at 70.5 h (%)": -8.23}
{"Compound": "COc1ccnc(N2CCCN(C(=O)Cc3ccc(C)s3)CC2)n1", "cytotoxicity at 70.5 h (%)": 22.9}
{"Compound": "Cc1n[nH]c(C)c1NC(=O)NCc1ccccn1", "cytotoxicity at 70.5 h (%)": -8.47}
{"Compound": "Cc1ccc(F)c(C(=O)Nc2cccc(CCN3CCCC3)c2)c1", "cytotoxicity at 70.5 h (%)": -1.18}

Field: next compound
Task: Which measured cytotoxicity at 70.5 h value corresponds to COc1ccc(OC)c2c(C)cc(N(C)CCO)nc12 ?
Output: 16.9

###

Parameter: cytotoxicity at 70.5 h. Scope: all listed entries.
# Protocol notes: Human HepG2 cell viability assay in 384 well format
# Format: toxicity, cell-based
# Design: dose 125 nL, time 70.5 hour; concentration not given beside the values
# Measurement setup: HepG2 cells, read-out: Inhibition
Please give a number only; it is taken to be in %.

For orientation, consider the following solved cases.
{"Compound": "CC(=O)N1CCCN(C(=O)NCCOc2ccc3c(c2)OCO3)CC1", "cytotoxicity at 70.5 h (%)": -8.5}
{"Compound": "Cc1nc(N2CCCC2)ncc1-c1cc(O)nc(N2CCCC2)n1", "cytotoxicity at 70.5 h (%)": -11.7}
{"Compound": "CC(C)(C)NC(=O)NC(=O)CNc1c(F)cccc1N1CCCC1", "cytotoxicity at 70.5 h (%)": -5.38}
{"Compound": "COCCN(Cc1cccnc1)c1nc(C)nc2oc(C)nc12", "cytotoxicity at 70.5 h (%)": -5.28}
{"Compound": "CCc1nnc(CN(CC)C(=O)CCc2scnc2C)o1", "cytotoxicity at 70.5 h (%)": -2.72}
{"Compound": "Cc1cccc2sc(NC(=O)CN3CCCC4(CC3)CNC(=O)O4)nc12 (stereo unspecified)", "cytotoxicity at 70.5 h (%)": -7.84}

Task: Which measured cytotoxicity at 70.5 h value corresponds to CCC1CCCN(S(=O)(=O)c2cnc3onc(C)c3c2)C1 (stereo unspecified) ?
Output: -4.44

Task: Which measured cytotoxicity at 70.5 h value corresponds to Cc1ccc(CN2CC[C@@H](NS(C)(=O)=O)[C@@H]2Cc2ccncc2)o1 ?
Output: -10.7

Task: Which measured cytotoxicity at 70.5 h value corresponds to CN(C(=O)C1(C#N)CCCCC1)c1nccs1 ?
Output: -0.486

Task: Which measured cytotoxicity at 70.5 h value corresponds to Cc1cc(C)c(CNC(=O)N2CCCC2c2ccc(F)cc2)c(=O)[nH]1 (stereo unspecified) ?
Output: -6.72

Task: Which measured cytotoxicity at 70.5 h value corresponds to CC(C)c1nccn1-c1cncc(C2CCCN2Cc2cccnc2)n1 (stereo unspecified) ?
Output: -1.69

###

# Protocol notes: Human HepG2 cell viability assay in 384 well format
# Type: toxicity, cell-based
# Design: dose 125 nL, time 70.5 hour; concentration not given beside the values
# Measurement setup: HepG2 cells, read-out: Inhibition
Parameter: cytotoxicity at 70.5 h. Scope: all listed entries.
Please give a number only; it is taken to be in %.

For orientation, consider the following solved cases.
{"Compound": "CN(C)c1cccc(C(=O)N2CCCSCC2CN2CCCC2)c1 (stereo unspecified)", "cytotoxicity at 70.5 h (%)": 3.97}
{"Compound": "Cc1ccc2nc(CN3CCN(C4CCCCC4)C(=O)C3)cc(O)c2c1", "cytotoxicity at 70.5 h (%)": -0.969}
{"Compound": "CC(C)Nc1nc2c(c(N(C)C)n1)CCN(Cc1nccn1C)CC2", "cytotoxicity at 70.5 h (%)": 10.1}
{"Compound": "O=C(CCc1cc2n(n1)CCNC2)NCCS(=O)(=O)N1CCCC1", "cytotoxicity at 70.5 h (%)": -11.2}
{"Compound": "CC(=O)Nc1cccc(C(=O)N2CCc3c(nc(N(C)C)[nH]c3=O)C2)c1", "cytotoxicity at 70.5 h (%)": 16.1}

Task: Which measured cytotoxicity at 70.5 h value corresponds to O=C(CN1CCOC(Cn2cccn2)C1)NCc1ccco1 (stereo unspecified) ?
Output: -2.4

Task: Which measured cytotoxicity at 70.5 h value corresponds to CCC1CCC(N(Cc2cc(=O)n(C)c(=O)n2C)C2CC2)CC1 (stereo unspecified) ?
Output: -5.27

Task: Which measured cytotoxicity at 70.5 h value corresponds to CN(C)C(=O)c1cn2cc(-c3ccccc3Cl)n(CC3CC3)c(=O)c2n1 ?
Output: -3.22

Task: Which measured cytotoxicity at 70.5 h value corresponds to O=C(c1ccco1)N1CCC(CSCc2ccco2)CC1 ?
Output: -7.2

Task: Which measured cytotoxicity at 70.5 h value corresponds to CCc1cc(O)nc(C2CCCN(Cc3ccncc3)C2)n1 (stereo unspecified) ?
Output: -1.03

Task: Which measured cytotoxicity at 70.5 h value corresponds to O=c1oc(-c2ccccc2)nn1CN1CCC(N2CCCCC2)CC1 ?
Output: 24.3

meta.source: ChEMBL document CHEMBL3507680
